Below, each of the molecules is paired with its reported Inhibition value.
Tested on: Cryptococcus neoformans
Test Settings: Concentration 32 ug.mL-1; ASSAY_TEST Inhibition of Fungal Growth; detection method Resazurin; Absorption (OD600-OD570); plate type 384well; NBS; CORNING #3640
Description: Antifungal activity against Cryptococcus neoformans H99 ATCC 208821 (CO-ADD:FG_002); MIC in YNB media using NBS plates, by Resazurin OD(600-570)
Potency and affinity values are given separately.
Numbers only here, please. The scale is %.

Some molecules with recorded Inhibition:
| Structure Smiles String | Reading Unit | Quantitative Result |
| --- | --- | --- |
| CCCCOc1ccc(-c2cc3c4nnc(SCC(=O)Nc5cc(F)ccc5C)n4ccn3n2)cc1 | % | -31.79 |
| C=Cc1ccc(CN(c2ccc(C(C)C)cc2)S(=O)(=O)c2cccn3cnnc23)cc1 | % | -17.09 |

Note down Inhibition recorded for CCc1ccc(NC(=O)Cn2c(=O)c3nnc(C(C)C)n3c3ccccc32)cc1 -22.84

Supply measured Inhibition of Cc1nnc2c(S(=O)(=O)N(Cc3ccc(F)cc3)c3ccc(C(C)C)cc3)cccn12 in your reply. -6.86

Specify reported Inhibition for the molecule shown: Cc1cc(C)c(NC(=O)Cn2nc3c(Sc4ccccc4)nccn3c2=O)c(C)c1 -6.18

Report Inhibition for CC(C)c1ccc(NC(=O)Cn2nc3ccc(SCc4ccc(Cl)cc4)nn3c2=O)cc1 -27.26

Look up and state reported Inhibition for O=c1c2nnc(SCc3ccc(Cl)cc3)n2ccn1-c1ccc(F)c(F)c1 -5.11

Return value of Inhibition for input O=C(Cn1nc2c3cc(-c4ccc(Cl)cc4)nn3ccn2c1=O)Nc1ccc2c(c1)OCCO2 , no commentary. -18.54

* * *

Test system: Cryptococcus neoformans
Test Settings: Concentration 32 ug.mL-1; ASSAY_TEST Inhibition of Fungal Growth; detection method Resazurin; Absorption (OD600-OD570); plate type 384well; NBS; CORNING #3640
Results with a measured potency or affinity are listed apart.
Parameter: Inhibition (%)
The reply should be a number in %, with the unit left off.

| Compound | Tested On | Reading Unit | Inhibition |
| --- | --- | --- | --- |
| CCOC(=O)c1ccccc1NC(=O)Cn1nc2c(Oc3ccccc3)nccn2c1=O | Cryptococcus neoformans | % | -11.47 |
| O=C(Cn1nc2ccc(Sc3ccccc3)nn2c1=O)Nc1ccc(Cl)cc1 | Cryptococcus neoformans | % | -7.55 |
| CCOC(=O)c1ccc(NC(=O)CSc2nc3ccccc3n3c(C(C)C)nnc23)cc1 | Cryptococcus neoformans | % | -11.29 |

Recall the reported Inhibition of CCC(C)NC(=O)Cn1nc2ccc(SCc3ccc(Cl)cc3)nn2c1=O (configuration not stated) when tested on Cryptococcus neoformans. -20.85

With Cryptococcus neoformans as the test system, provide measured Inhibition for this compound: COc1ccc(-c2nc(CSc3nc4ccccc4n4c(C(C)C)nnc34)c(C)o2)cc1OC -7.98

* * *

Tested on: Cryptococcus neoformans
Test Settings: Concentration 32 ug.mL-1; ASSAY_TEST Inhibition of Fungal Growth; detection method Resazurin; Absorption (OD600-OD570); plate type 384well; NBS; CORNING #3640
Measured potencies and affinities stand elsewhere.
Parameter: Inhibition (%)
Give a bare numeral; the unit % is implied.

Examples with answers:
| Structure Smiles String | Inhibition [%] |
| --- | --- |
| CC(C)(C)Sc1ccc2nn(CC(=O)Nc3ccccc3C(F)(F)F)c(=O)n2n1 | -20.81 |
| Cc1cc(C)cc(N(Cc2ccc(Cl)cc2)S(=O)(=O)c2cccn3c(C)nnc23)c1 | -8.23 |
| CCc1nnc2c(SCC(=O)Nc3c(C)cc(C)cc3C)nc3ccccc3n12 | -17.04 |

Return Inhibition (reported value) for this compound: COc1cccc(NC(=O)Cn2nc3c4cc(-c5ccc(Cl)cc5)nn4ccn3c2=O)c1 -4.67

Give Inhibition for the following compound: Cc1ccc(-c2ccc3nn(CC(=O)Nc4ccccc4)c(=O)n3n2)cc1C -10.8

Quickly give me recorded Inhibition for CC(C)c1nnc2c(SCC(=O)Nc3ccc(Br)cc3)nc3ccccc3n12 0.69
